- Test system: human cancer cell lines
- Assay Overview: Cytotoxicity across the panel of human cancer cell lines (average, high-throughput assays)
- Type: cell-based
- Applied Conditions: average across eight human cancer cell lines; MTT (HT-29) values excluded
Marks after values point to notes of the source that are not given here.
Readout Kind: Cancerous Average IC50 / Average IC50 in Cancer Cell Lines

IN: Entry "S=C=NC1CC1" : reported Cancerous Average IC50 / Average IC50 in Cancer Cell Lines = ?
OUT: >50.00^c μM

IN: Entry "S=C=N[C@@H]1CCCc2ccccc21" : reported Cancerous Average IC50 / Average IC50 in Cancer Cell Lines = ?
OUT: 8.27^g μM

IN: Entry "S=C=Nc1ccc(Br)cc1" : reported Cancerous Average IC50 / Average IC50 in Cancer Cell Lines = ?
OUT: >50.00^e μM

IN: Entry "CCCCc1ccc(N=C=S)cc1" : reported Cancerous Average IC50 / Average IC50 in Cancer Cell Lines = ?
OUT: 35.25^f μM

IN: Entry "S=C=NCC1CCCCC1" : reported Cancerous Average IC50 / Average IC50 in Cancer Cell Lines = ?
OUT: 29.31^d μM

IN: Entry "CC(C)CN=C=S" : reported Cancerous Average IC50 / Average IC50 in Cancer Cell Lines = ?
OUT: >50.00^b μM
